assay: ATP-PPi exchange assay (amino acid activation); format: biochemical; details: nsAA pAcF
QUANTITY: Km (µM)
All answers are understood in µM, so give the number only.

Recorded Km (molecule pAcFRS.1.t2: pAcFRS variant A167D, R257C, F261E, SEQ ID NO: 6 (protein) MDEFEMIKRNTSEIISEEELREVLKKDEKSALIGFEPSGKIHLGHYLQIKKMIDLQNAGFDIIILLADLHAYLNQKGELDEIRKIGDYNKKVFEAMGLKAKYVYGSEFQLDKDYTLNVYRLALKTTLKRARRSMELIAREDENPKVAEVIYPIMQVNGCHYRGVDVDVGGMEQRKIHMLARELLPKKVVCIHNPVLTGLDGEGKMSSSKGNFIAVDDSPEEIRAKIKKAYCPAGVVEGNPIMEIAKYFLEYPLTIKCPEKEGGDLTVNSYEELESLFKNKELHPMRLKNAVAEELIKILEPIRKRL ): 1690
